Tested on: SW480
assay_remarks: Cytotoxicity against human SW480 cells assessed as cell viability after 48 hrs by MTS assay
Format: functional, cell-based
recorded_conditions: SW480, 48 h
property_name: IC50 (µM)
Report the figure in µM without appending any unit label.

# input Hello, I am looking for reported IC50 with SW480 for C/C1=C\[C@@H](C)C/C=C/[C@H]2C=C(CO)[C@@H](C)[C@H]3[C@H](Cc4c[nH]c5ccccc45)NC(=O)[C@]32C(=O)/C=C/C(=O)[C@@H]1O . Could you help?
# output 3.9

# input Try the compound C/C1=C\[C@@H](C)C/C=C/[C@H]2[C@H](O)[C@@]3(C)O[C@@]4(Cc5c[nH]c6ccccc56)NC(=O)[C@]2(C(=O)CCC(=O)C1=O)[C@H]4[C@@H]3C
# output 35.3

# input Try the compound COC(=O)CCC(=O)[C@@]12C(=O)N[C@@H](Cc3c[nH]c4ccccc34)[C@@H]1[C@H](C)[C@@]1(C)O[C@H]1[C@@H]2/C=C/CC(C)/C=C(\C)C=O (stereo not given in full)
# output 38.2

###

Test system: HL-60
assay_remarks: Cytotoxicity against human HL60 cells assessed as cell viability after 48 hrs by MTS assay
Type: functional, cell-based
recorded_conditions: HL-60, 48 h
property_name: IC50

# input Recorded IC50 of CC(=O)O[C@H]1C(=O)[C@@]2(C)[C@H]([C@H](OC(=O)c3ccccc3)[C@]3(O)C[C@H](OC(=O)[C@H](O)[C@@H](NC(=O)c4ccccc4)c4ccccc4)C(C)=C1C3(C)C)[C@]1(OC(C)=O)CO[C@@H]1C[C@@H]2O , please.
# output < 0.008 µM

# input Try the compound C/C(C=O)=C\C(C)C/C=C/[C@H]1[C@@H]2O[C@]2(C)[C@@H](C)[C@H]2[C@H](Cc3c[nH]c4ccccc34)NC(=O)[C@]21C(=O)CCC(=O)O (stereo partly drawn)
# output > 40 µM

# input Try the compound C/C1=C\[C@@H](C)C/C=C/[C@H]2C=C(CO)[C@@H](C)[C@H]3[C@H](Cc4c[nH]c5ccccc45)NC(=O)[C@]32C(=O)CCC(=O)C1
# output > 40 µM
